# IC50 values compiled below
molecular target: KRAS G12D binding to BRAF (Homo sapiens (Human), UniProt P01116+P62937, G12D); assay: KRAS-BRAF with CYPA (500 nM) interaction assay (TR-FRET), G12D; conditions: GMPPNP loaded 6His-KRAS, GST-BRAF RBD, 3 hours
Sequence (P01116-2 other isoform, or with tags, fused parts or gaps G12D): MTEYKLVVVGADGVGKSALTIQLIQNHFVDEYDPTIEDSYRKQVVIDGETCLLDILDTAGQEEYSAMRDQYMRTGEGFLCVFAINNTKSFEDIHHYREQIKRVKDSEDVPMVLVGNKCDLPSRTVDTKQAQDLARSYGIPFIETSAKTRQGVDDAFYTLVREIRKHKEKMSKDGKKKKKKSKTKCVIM
Sequence (P62937 whole entry): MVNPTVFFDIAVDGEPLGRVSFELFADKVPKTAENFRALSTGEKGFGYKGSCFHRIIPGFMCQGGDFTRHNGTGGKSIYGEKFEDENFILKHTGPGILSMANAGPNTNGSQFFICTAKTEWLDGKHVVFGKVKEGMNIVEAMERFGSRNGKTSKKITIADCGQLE

compound	display_unit	IC50
CO[C@@H](C)c1ncc(N2CCN(C)CC2)cc1-c1c2c3cc(c(F)cc3n1CC(F)(F)F)-c1csc(n1)C[C@H](NC(=O)[C@H]1C[C@@H]1C)C(=O)N1CCC[C@H](N1)C(=O)OCC(C)(C)C2 (atropisomer, axis not shown; (M)) [Example 4]	µM	0.544
CCn1c(-c2cc(N3CCN(C)CC3)cnc2[C@H](C)OC)c2c3cc(c(F)cc31)-c1csc(n1)C[C@H](NC(=O)[C@H]1C[C@@H]1C)C(=O)N1CCC[C@H](N1)C(=O)OCC(C)(C)C2 (atropisomer, axis not shown; (M)) [Example 1]	µM	0.915

# credit: patent US20250250284A1
